ASSAY_PROTOCOL: yeast display, Sf9 membrane polyspecificity reagent, FACS + sequencing; frameworks hold sequencing errors
MEASUREMENT_LABEL: polyreactivity (PSR sort gate)

{"SEQUENCE_DATA": "QVQLVESGGGLVQAGGSLRLSCAASGRTFRSNAMGWYRQAPGKERELVATISRRGVSTYYADSVKGRFTISRDNAKNTVYLQMNSLKPEDTAVYYCTLNVGTTSRWSYDYWGQGTQVTVSS", "polyreactivity (PSR sort gate)": "high polyreactivity"}
{"SEQUENCE_DATA": "QVQLVESGGGLVQAGGSLRLSCAASGSTFLRYAMGWYRQAPGTERELVAALSYSGGSTYYADSVKGRFTISRDTAKKTVSLQMNSLKPEDTAVYYCNAGVFANDNGGRLDQFTWEYEYWGQGTQVTVSS", "polyreactivity (PSR sort gate)": "low polyreactivity"}
{"SEQUENCE_DATA": "QVQLVESGGGLVQAGRSLRLSCAASGFTFGYYAMGWYRQPPGKERELVAAISWNGGRTYYADSVKGRFTISRDNAKNTVYLQMISLKPEDTAVYYCAADYRFYSPTQYTYDYWGQGTQVTVSS", "polyreactivity (PSR sort gate)": "high polyreactivity"}
{"SEQUENCE_DATA": "QVQLVESGVGLVQAGGSLRLSCAASGSTFPKNVMGWYRQAPGKERELVAAINYSGTSTYYADSVKGRFTISRDNAKNTVYLQMNSLKPEDTAVYYCAARFPLVRYNYWGQGTQVTVSS", "polyreactivity (PSR sort gate)": "high polyreactivity"}
{"SEQUENCE_DATA": "QVQLVESGGGLVQAGGSLRLSCAASGSTFGYYAMGWSRQAPGKEREFVAAITYGDGNTYYADSVKGRFTISRDNAKNTVYLQMNRLKREDTEVYYCAKYYWGPTGAHGGYGYWGQGTQVTVCS", "polyreactivity (PSR sort gate)": "low polyreactivity"}
{"SEQUENCE_DATA": "QVQLVESGGGLVQAGGSLRLSCAASGITFFRYAMGWYRQAPGKERELVAAITTSGSSTFYADSVKGRFTISRDNAKNTVYLQMNSLTPEDTAVYYCATDYERYTWVGYLVTYYYWGQGTQVTVSS", "polyreactivity (PSR sort gate)": "high polyreactivity"}
{"SEQUENCE_DATA": "QVQLVESGGGLVQAGGSLRLSCAASGSIFGPYAMGWYRQAPGKERELVAAISKGGGSTYYADSVKGRFTISRDNAKNTVYLQMNSLKPDDTAVYYCAADQDKPYDHWGQGTQVTVSS", "polyreactivity (PSR sort gate)": "low polyreactivity"}
{"SEQUENCE_DATA": "QVQLVESGGGLVQAGGSLRLSCAASGSIFSYYVKGWYRQAPGKERELVAVITDRGGRTYYADSVKGRFTISRDNAKNPVYLQMNSLKPEDTAVYYCNKYIRRYLIYGSWGQGTQVTVSS", "polyreactivity (PSR sort gate)": "high polyreactivity"}
{"SEQUENCE_DATA": "QVQLVESGGGLVQAGGSLRLSCAASGLIFARYATGWYRQAPGKERELVAAITDTGDITYSADSVKGRFTISRDNAKNTVYLQMNSLKPEDTGVYYCNADGVESVGGVETLYWRGGYWGQGTQVTVSS", "polyreactivity (PSR sort gate)": "low polyreactivity"}
{"SEQUENCE_DATA": "QVQLVESGGGLVQAGGSLRLSCAASGRIINYYAMGWYRPAPGKERELVAGISWSGGSTSYADSVKGRFTISRDNAKNTVYLQMNSLKPEDTAVYYCAAGVFKAFYYWGQGTQVTVSS", "polyreactivity (PSR sort gate)": "low polyreactivity"}

Field: next sequence
Exercise: Give its polyreactivity (PSR sort gate) value. Item: QVQLVESGGGLVQAGGSLRLSFAASGFTFYRYAMGWYRQAPGKERELVAAISGDGGSTYYAASVKGRFTISRDNAKNTVYLQMNSLKPEDTAVYYCNKYFWQYLYGYWGQGTQVTVSS
Key: high polyreactivity
